assay: Growth inhibition of human HCT15 cells after 5 days by sulforhodamine B assay; assay type: functional; details: HCT-15, 120 h

| CPD SMILES | GI50, µM |
| --- | --- |
| O=C(/C=C/c1cccn(Cc2cccc(Br)c2)c1=O)NO | 2.73 |
| CCc1ccc(Cn2cccc(/C=C/C(=O)NO)c2=O)cc1 | 1.86 |
| O=C(/C=C/c1cccn(Cc2ccc(Br)cc2)c1=O)NO | 4.31 |
| CCOc1ccccc1CCn1cccc(/C=C/C(=O)NO)c1=O | 6.06 |
| CCc1ccccc1Cn1cccc(/C=C/C(=O)NO)c1=O | 3.93 |
| COc1ccc(CCCn2cccc(/C=C/C(=O)NO)c2=O)cc1 | 0.9 |
